target: full length N-terminally FLAG-tagged PARP1 (Homo sapiens); experiment: PARP1 probe displacement HTRF assay; details: read-out: PARP1 HTRF; binned Kd, PARP1 probe displacement HTRF
Sequence (P09874 whole entry): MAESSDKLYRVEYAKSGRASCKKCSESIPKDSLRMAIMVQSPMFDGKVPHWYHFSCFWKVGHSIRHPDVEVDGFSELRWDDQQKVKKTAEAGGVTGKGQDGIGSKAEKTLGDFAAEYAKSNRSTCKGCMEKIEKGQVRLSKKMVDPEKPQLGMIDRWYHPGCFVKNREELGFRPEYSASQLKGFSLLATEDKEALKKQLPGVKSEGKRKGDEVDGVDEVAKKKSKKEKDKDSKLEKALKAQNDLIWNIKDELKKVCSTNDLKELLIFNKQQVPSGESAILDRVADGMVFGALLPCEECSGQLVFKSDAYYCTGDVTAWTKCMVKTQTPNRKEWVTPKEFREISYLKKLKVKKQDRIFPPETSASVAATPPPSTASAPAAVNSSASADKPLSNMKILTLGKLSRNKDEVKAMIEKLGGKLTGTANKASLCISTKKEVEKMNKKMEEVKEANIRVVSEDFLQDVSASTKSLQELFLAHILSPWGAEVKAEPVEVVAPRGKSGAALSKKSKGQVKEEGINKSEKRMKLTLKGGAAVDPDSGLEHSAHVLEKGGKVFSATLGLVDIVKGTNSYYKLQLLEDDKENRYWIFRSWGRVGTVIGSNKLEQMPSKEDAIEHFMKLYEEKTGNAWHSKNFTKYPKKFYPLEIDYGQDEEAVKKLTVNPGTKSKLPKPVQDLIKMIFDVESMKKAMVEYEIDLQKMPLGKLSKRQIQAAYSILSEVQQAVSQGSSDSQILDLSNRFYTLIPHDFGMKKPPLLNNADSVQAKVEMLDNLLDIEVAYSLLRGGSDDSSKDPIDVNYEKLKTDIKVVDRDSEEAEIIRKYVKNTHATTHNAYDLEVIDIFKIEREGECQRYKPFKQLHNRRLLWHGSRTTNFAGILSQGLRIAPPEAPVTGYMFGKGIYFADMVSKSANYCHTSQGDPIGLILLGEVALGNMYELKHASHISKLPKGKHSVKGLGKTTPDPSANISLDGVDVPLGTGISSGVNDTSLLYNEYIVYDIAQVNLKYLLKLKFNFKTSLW
Answer each item with its documented Kd.

Some entries whose results are on file:
- Compound: "CNC(=O)c1ccc(N2CCC(N3CCC(c4ccc(OC)c(=O)[nH]4)C3)CC2)c(C(F)(F)F)n1 (single isomer, unassigned) [Compound 152a]"
  Kd: "< 10 nM"
- Compound: "CNC(=O)c1ccc(N2CCC(N3CCC(c4nc5ccccc5c(=O)[nH]4)C3)CC2)cc1 (single isomer, unassigned) [Compound 80b]"
  Kd: "100 to 1000 nM"

Note: attention shifts to another entry.
Query: Which measured Kd value corresponds to CNC(=O)c1ccc(N2CCC(N3CCCC(c4nc5ccc(F)cc5c(=O)[nH]4)C3)CC2)cn1 (single isomer, unassigned) [Compound 78b] ?
Response: 10 to 100 nM
